MEASURED TARGET: potassium channels (Sus scrofa, UniProt F1SR11)
ASSAY NAME: Functional potassium channel opening activity in isolated Landrace pig bladder strips (field-stimulated twitch)
TEST CONDITIONS: ED50 for P1075 divided by ED50 for the test agonist, averaged over tissues
ATTRIBUTE MEASURED: Landrace Pig Bladder Index

| MOLECULE | Landrace Pig Bladder Index |
| --- | --- |
| O=C1CCC2=C1C(c1ccc(F)c(Br)c1)C1=C(CCS1(=O)=O)N2 (stereo not shown) [Example 56] | 0.88 |
| O=C1CCC2=C1C(c1ccc(Cl)c([N+](=O)[O-])c1)C1=C(CCS1(=O)=O)N2 (single isomer, unassigned) [Example 161] | 0.23 |

I. O=C1CCCC2=C1C(c1cccc(Cl)c1)C1=C(CCCS1(=O)=O)N2 (stereo not shown) [Example 16]
II. O=C1CCCC2=C1C(c1cc(Br)ccc1O)C1=C(CCS1(=O)=O)N2 (stereo not shown) [Example 108]
Request: When I and II are compared, which has the higher number for Landrace Pig Bladder Index? Identify your pick by its label.
Result: II
(II: 0.075, I: 0.011)
